FYI, the data here is from patent US20210038559A1.

Test system: MHC class I expression on COLO 205 cells
ASSAY_INFO: MHC class I expression on COLO 205 cells, 24 hours, flow cytometry (W6/32)
ASSAY_SETUP: Homo sapiens, COLO 205
Each record here notes measured fold induction at 10 µM.
Answer as a number with no unit attached.

COMPOUND: CCCCCc1cc(O)c(C/C=C(\C)CCC=C(C)C)c(O)c1
SYSTEM_UNDER_TEST: MHC class I expression on COLO 205 cells
fold induction at 10 µM: 1.03

COMPOUND: CCCc1cc(O)c2c(c1)OC(C)(C)[C@@H]1CCC(C)=C[C@@H]21
SYSTEM_UNDER_TEST: MHC class I expression on COLO 205 cells
fold induction at 10 µM: 1.26

Query string: Any idea what its fold induction at 10 µM is? The compound is CCCCCc1cc(O)c2c(c1)OC(C)(C)c1ccc(C)cc1-2
Result string: 0.99

Query string: Same read-out for C=C(C)[C@@H]1CCC(C)=CC1c1c(O)cc(CCCCC)cc1O (some centres unmarked) ?
Result string: 1.17

Query string: Same read-out for CCCCCc1cc(O)c2c(c1)OC(C)(CCC=C(C)C)C=C2 (centres unmarked) ?
Result string: 0.99

----------
Tested on: MHC-I expression by COLO 205 cells
ASSAY_INFO: cells
Format: cell-based, human
Each record here notes measured Induction Fold.
Give just the number in Fold; leave the unit off.

Below, each entry is followed by its recorded Induction Fold result.
COMPOUND: CCCCCn1cc(C(=O)Cc2cccc(OC)c2)c2ccccc21
SYSTEM_UNDER_TEST: MHC-I expression by COLO 205 cells
Induction Fold, Fold: 3.42
--
COMPOUND: O=C(Oc1cccc2cccnc12)c1cn(CC2CCCCC2)c2ccccc12
SYSTEM_UNDER_TEST: MHC-I expression by COLO 205 cells
Induction Fold, Fold: 3.15
--
COMPOUND: CCCCCn1cc(C(=O)NC23CC4CC(CC(C4)C2)C3)c2ccccc21
SYSTEM_UNDER_TEST: MHC-I expression by COLO 205 cells
Induction Fold, Fold: 2.38
--
COMPOUND: O=C(c1cccc2ccccc12)c1nn(CCCCCF)c2ccccc12
SYSTEM_UNDER_TEST: MHC-I expression by COLO 205 cells
Induction Fold, Fold: 2.23

Query string: Can you look up Induction Fold on MHC-I expression by COLO 205 cells for CCCCCn1cc(Cc2cccc3ccccc23)c2ccccc21 ?
Result string: 1.61

Query string: Same read-out for CCCCCn1ccc(C(=O)c2cccc3ccccc23)c1 ?
Result string: 2.75

Query string: Same read-out for CCCCCn1cc(C(=O)c2cccc3ccccc23)cc1-c1ccccc1F ?
Result string: 2.52

Query string: Same read-out for CCCCCOc1ccc(C(=O)c2cccc3ccccc23)c2ccccc12 ?
Result string: 2.12

Query string: Same read-out for CCCCCCn1cccc1C(=O)c1cccc2ccccc12 ?
Result string: 1.87

----------
Tested on: MHC-I expression by COLO 205 cells
ASSAY_INFO: cells
Assay type: cell-based, human
ASSAY_SETUP: Homo sapiens, COLO 205, 48 h, MHC-I expression, COLO 205 cells, compounds at 35 μM, 48 hours, flow cytometry (W6/32); read-out: Induction Fold
Protocol: A panel of synthetic cannabinoids (Cayman Chemical, #9002891) was tested for MHC class I-inducing capability in COLO 205 cells as described above. COLO 205 cells were treated with the compounds at a concentration of 35 μM and evaluated for cell surface MHC class I expression after 48 hours. Cells were harvested, stained with MHC-I mAb W6/32 (Thermo Fisher). MHC-I expression was determined by flow cytometry.
Each record here notes measured fold induction at 35 µM.
Answer as a number with no unit attached.

COMPOUND: CCCCCn1nc(C(=O)N[C@@H](CCCC)C(N)=O)c2ccccc21 (single isomer, unassigned) [Example 11]
ATTRIBUTE_MEASURED: fold induction at 35 µM
READING: 4.56
--
COMPOUND: CCC(Cl)CCn1cc(C(=O)C2C(C)(C)C2(C)C)c2ccccc21 (stereo not drawn) [Example 37]
ATTRIBUTE_MEASURED: fold induction at 35 µM
READING: 3.3

Query string: Any idea what its fold induction at 35 µM is? The compound is CC[C@H](C)[C@H](NC(=O)c1nn(CCCCCF)c2ccccc12)C(N)=O (single isomer, unassigned) [Example 298]
Result string: 1.42

Query string: Same read-out for CCC(F)CCn1cc(C(=O)Oc2cccc3cccnc23)c2ccccc21 (stereo not drawn) [Example 45] ?
Result string: 3.02

Query string: Same read-out for CC(C)(C)C(NC(=O)c1cn(Cc2ccccc2)c2ccccc12)C(N)=O (stereo not drawn) [Example 186] ?
Result string: 1.9

Query string: Same read-out for CCCCCn1cc(C(=O)c2ccc(OC)c3ccccc23)c2ccccc21 [Example 265] ?
Result string: 1.55

Query string: Same read-out for COC(=O)[C@@H](NC(=O)c1nn(CC2CCCCC2)c2ccccc12)C(C)C [Example 14] ?
Result string: 4.2

Query string: Same read-out for CCCCCn1cc(C(=O)c2c(OC)ccc3ccccc23)c2ccccc21 [Example 90] ?
Result string: 2.5
